test system: Inhibin beta A chain (activin A); assay: small molecules binding activin A – biochemical, small-molecule microarray, 635 nm fluorescence scan, primary screen (AID 1107); conditions: INHBA, higher = more signal;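 note: mouse activin A protein probed at 4.33 µg/mL on printed slides; score merges bound-protein fluorescence near 667 nm with spot signal-to-noise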
value-type: composite z-score
Form rule: numeric answer, no unit written next to it.

**Query** Bench note: what composite z-score did O=C1O[C@H](c2ccccc2)[C@H](c2ccccc2)N2[C@H]1[C@@H](C(=O)O)[C@]1(C(=O)Nc3ccc(C#CCCO)cc31)[C@H]2c1ccccc1OCCO show?
**Result** 0.671

**Query** I am curious: what composite z-score value has been reported for CCCN1C(=O)[C@]2(Cc3ccccc31)N=C(c1ccc(OCCCO)cc1)O[C@@H]2c1ccccc1 ?
**Result** 0.72

**Query** Request the reported composite z-score associated with CCCC=C(CCC)[C@@H](NP(=O)(c1ccccc1)c1ccccc1)c1ccc(-c2ccccc2)cc1
**Result** 0.479

**Query** Which composite z-score value belongs to CN1C(=O)C2C=CC(C(O)c3cccn3C)N(Nc3ccc([N+](=O)[O-])cc3[N+](=O)[O-])C2C1=O (stereo unspecified) ?
**Result** 1.12

**Query** Recorded composite z-score for CCC1=C2CN(Cc3ccccc3)[C@@H](C(=O)Cc3ccccc3)C2C=CCC1 (stereo partly specified) , please?
**Result** 0.749

**Query** // returns reported composite z-score for input COc1cccc(C)c1NC(=O)O[C@H]1[C@H](OC(=O)Nc2ccc3c(c2)OCO3)[C@@H](OC(=O)Nc2ccc3c(c2)OCO3)[C@@H](OC)O[C@@H]1CO
**Result** 0.724

* * *

Would you mind telling me the reported z-score of each entry?
experiment: compound effects on differentiated 3T3-L1 adipocyte viability – cell-based, 3T3-L1 adipocytes, calcein-AM fluorescence, 48 h, basal, profiling panel (AID 1163); conditions: 3T3-L1 adipocytes viability, higher = more signal; note: test concentration not given here
Write no unit; give the number alone.

**Query** Which z-score value belongs to CCOC(=O)C1=C[C@@H](C(C)(C)C)N(S(=O)(=O)c2ccc(C)cc2)[C@H]1c1cccc2ccccc12 ?
**Result** -0.15

**Query** Which z-score value belongs to CCCNC(=O)[C@@]1(Sc2ccc(C)cc2)CC(=O)N(C2Cc3ccccc3C2)[C@@H]1c1ccc(CO)cc1I ?
**Result** 0.331

**Query** Given the entry COC(=O)[C@@]1(Cc2ccc(F)cc2)[C@H]2c3cc(C(=O)N(C)C)n(CCc4ccc(OC)c(Br)c4)c3C[C@H]2CN1C(=O)c1ccccc1 , report its measured z-score.
**Result** 0.0834

**Query** Any idea what its z-score is? The compound is CC(C)[Si](C#CCCCC#N)(O[C@H](c1ccccc1)c1cn(Cc2ccccc2)nn1)C(C)C
**Result** -0.454

**Query** Form field: reported z-score of CCCCCN1CC=CC23O[C@@H]4C=CCCOC(=O)C4[C@H]2C(=O)N(CCCCCCO)[C@@H]3C1=O (stereo partly specified)
**Result** -0.131

**Query** Need z-score, item O=C1C2C=CC(C(O)c3cccc(O)c3)N(Nc3ccc([N+](=O)[O-])cc3)C2C(=O)N1c1ccccc1 (stereo unspecified)
**Result** -0.55

**Query** Requested read-out: z-score. Entry: CCCC[C@@H](O)C1=C(COC)C[C@H]2C(=O)N(C)C(=O)[C@H]2[C@H]1CO
**Result** 1.13

**Query** Can you share its z-score? I mean this compound: O=C1O[C@H](c2ccccc2)[C@H](c2ccccc2)N2[C@H]1[C@@H](C(=O)O)[C@]1(C(=O)Nc3ccc(C#CCCO)cc31)[C@H]2c1ccccc1OCCO
**Result** 1.32

**Query** Data request, read-out z-score, for COCCCNC(=O)[C@@]1(CCC(=O)OC(C)(C)C)N=C(c2ccc(OCCCO)cc2)O[C@H]1c1ccccc1N=[N+]=[N-]
**Result** 0.251

**Query** State the recorded z-score for this entry: O=C1NC(=O)C2C1C=CC(C(O)c1ccco1)N2Nc1ccc(Cl)cc1Cl (stereo unspecified)
**Result** -0.792

**Query** Looking for the measured z-score of C=CCNC(=O)[C@@H]1[C@H]2C(=O)O[C@H](c3ccccc3)[C@H](c3ccccc3)N2[C@H](c2ccccc2OCCO)[C@@]12C(=O)N(C(=O)OCCOC)c1ccc(C#CC3(O)CCCCCC3)cc12 , can you help?
**Result** 1.21
